Test system: OVCAR-4
procedure_details: Cytotoxicity against human OVCAR4 cells assessed as cell growth at 1 uM after 48 hrs by sulforhodamine B assay relative to control
Type: functional
condition_summary: OVCAR-4, 48 h, read-out: Activity
observation_type: growth at 1 µM (%)
Output spec: scalar in %, unitless text.

Exercise: Write down growth at 1 µM measured for item `COc1ccc(-c2cc(/C=C/C(=O)c3ccc(OC)c(OC)c3)[nH]n2)cc1`
Key: 39

----------
System: HL-60(TB)
procedure_details: Cytotoxicity against human HL-60(TB) cells assessed as cell growth at 1 uM after 48 hrs by sulforhodamine B assay relative to control
Assay type: functional
condition_summary: HL-60, 48 h, read-out: Activity
Parameter: growth at 1 µM. Scope: all listed entries.
Output spec: scalar in %, unitless text.

Some solved cases for reference:
structure_string=COc1ccc(C(=O)/C=C/c2cc(-c3cc(OC)c(OC)c(OC)c3)n[nH]2)cc1OC observed_value=67
structure_string=COc1ccc(C(=O)/C=C/c2cc(-c3ccc4c(c3)OCO4)n[nH]2)cc1OC observed_value=89
structure_string=COc1ccc(-c2cc(/C=C/C(=O)c3cc(OC)c(OC)c(OC)c3)[nH]n2)cc1OC observed_value=64

Could you now consider this next compound?
Exercise: Write down growth at 1 µM measured for item `COc1ccc(-c2cc(/C=C/C(=O)c3ccc(OC)c(OC)c3)[nH]n2)cc1`
Key: 86

----------
Parameter: LC50. Scope: all listed entries.
Test system: Malme-3M
procedure_details: Cytotoxicity against human MALME-3M cells assessed as growth inhibition after 48 hrs by sulforhodamine B assay
Assay type: functional
Output spec: scalar in µM, unitless text.

Some solved cases for reference:
structure_string=COc1cc(C(=O)/C=C/c2cc(-c3ccc4c(c3)OCO4)n[nH]2)cc(OC)c1OC observed_value=15.3
structure_string=COc1cc(C(=O)/C=C/c2cc(-c3cc(OC)c(OC)c(OC)c3)n[nH]2)cc(OC)c1OC observed_value=8.99
structure_string=COc1ccc(C(=O)/C=C/c2cc(-c3cc(OC)c(OC)c(OC)c3)n[nH]2)cc1OC observed_value=6.79

Exercise: Write down LC50 measured for item `COc1cc2c(cc1OC)C(=O)/C(=C/c1cc(-c3ccc4c(c3)OCO4)n[nH]1)C2`
Key: 7.43

----------
Parameter: log10 LC50. Scope: all listed entries.
System: NCI-H522
procedure_details: Cytotoxicity against human NCI-H522 cells assessed as growth inhibition after 48 hrs by sulforhodamine B assay
Format: functional
condition_summary: NCI-H522, 48 h
log10 LC50, µM

Some solved cases for reference:
structure_string=COc1ccc(-c2cc(/C=C/C(=O)c3ccc(N)cc3)[nH]n2)cc1OC subject_of_test=NCI-H522 observed_value=0.80
structure_string=COc1cc(-c2cc(/C=C/C(=O)c3ccc(F)c(F)c3)[nH]n2)cc(OC)c1OC subject_of_test=NCI-H522 observed_value=1.81
structure_string=COc1ccc(-c2cc(/C=C/C(=O)c3ccc(OC)c(OC)c3)[nH]n2)cc1 subject_of_test=NCI-H522 observed_value=0.77
structure_string=COc1cc(C(=O)/C=C/c2cc(-c3ccc4c(c3)OCO4)n[nH]2)cc(OC)c1OC subject_of_test=NCI-H522 observed_value=0.86
structure_string=COc1cc(C(=O)/C=C/c2cc(-c3cc(OC)c(OC)c(OC)c3)n[nH]2)cc(OC)c1OC subject_of_test=NCI-H522 observed_value=0.63

Exercise: Write down log10 LC50 measured for item `COc1ccc(C(=O)/C=C/c2cc(-c3cc(OC)c(OC)c(OC)c3)n[nH]2)cc1`
Key: 0.84

Exercise: Write down log10 LC50 measured for item `COc1ccc(C(=O)/C=C/c2cc(-c3cc(OC)c(OC)c(OC)c3)n[nH]2)cc1OC`
Key: -0.08

----------
Test system: UACC-62
procedure_details: Cytotoxicity against human UACC62 cells assessed as cell growth at 0.1 uM after 48 hrs by sulforhodamine B assay relative to control
Assay type: functional
condition_summary: UACC-62, 48 h, read-out: Activity
Parameter: growth at 0.1 µM. Scope: all listed entries.
Output spec: scalar in %, unitless text.

Some solved cases for reference:
structure_string=COc1ccc(-c2cc(/C=C/C(=O)c3ccc(OC)c(OC)c3)[nH]n2)cc1 observation_type="growth at 0.1 µM" unit_name=% observed_value=93
structure_string=COc1ccc(C(=O)/C=C/c2cc(-c3ccc4c(c3)OCO4)n[nH]2)cc1OC observation_type="growth at 0.1 µM" unit_name=% observed_value=100
structure_string=COc1cc(-c2cc(/C=C/C(=O)c3ccc(F)c(F)c3)[nH]n2)cc(OC)c1OC observation_type="growth at 0.1 µM" unit_name=% observed_value=93

Could you now consider this next molecule?
Exercise: Write down growth at 0.1 µM measured for item `COc1ccc(C(=O)/C=C/c2cc(-c3ccc(OC)c(OC)c3)n[nH]2)cc1OC`
Key: 96

----------
System: NCI-H322M
procedure_details: Cytotoxicity against human NCI-H322M cells assessed as growth inhibition after 48 hrs by sulforhodamine B assay
Format: functional
observation_type: TGI (µM)
Output spec: scalar in µM, unitless text.

Some solved cases for reference:
structure_string=COc1cc2c(cc1OC)C(=O)/C(=C/c1cc(-c3ccc4c(c3)OCO4)n[nH]1)C2 observation_type=TGI observed_value=3.01
structure_string=COc1ccc(C(=O)/C=C/c2cc(-c3ccc4c(c3)OCO4)n[nH]2)cc1OC observation_type=TGI observed_value=7.3

Could you now consider this next compound?
Exercise: // fetch TGI for `COc1ccc(-c2cc(/C=C/C(=O)c3ccc(OC)c(OC)c3)[nH]n2)cc1` ; system: NCI-H322M
Key: 4.92

----------
Test system: SW-620
procedure_details: Cytotoxicity against human SW620 cells assessed as cell growth at 10 uM after 48 hrs by sulforhodamine B assay relative to control
Assay type: functional
condition_summary: SW-620, 48 h, read-out: Activity
observation_type: growth at 10 µM (%)
Output spec: scalar in %, unitless text.

Some solved cases for reference:
structure_string=COc1cc(-c2cc(/C=C/C(=O)c3ccc(F)c(F)c3)[nH]n2)cc(OC)c1OC unit_name=% observed_value=12
structure_string=COc1ccc(C(=O)/C=C/c2cc(-c3cc(OC)c(OC)c(OC)c3)n[nH]2)cc1 unit_name=% observed_value=-69
structure_string=COc1cc(C(=O)/C=C/c2cc(-c3ccc4c(c3)OCO4)n[nH]2)cc(OC)c1OC unit_name=% observed_value=-57
structure_string=COc1cc(-c2cc(/C=C/C(=O)c3ccc4c(c3)OCO4)[nH]n2)cc(OC)c1OC unit_name=% observed_value=-9
structure_string=COc1cc(-c2cc(/C=C/C(=O)c3ccc(Cl)c(Cl)c3)[nH]n2)cc(OC)c1OC unit_name=% observed_value=47

Could you now consider this next molecule?
Exercise: Write down growth at 10 µM measured for item `COc1cc(-c2cc(/C=C/C(=O)c3ccc(N)cc3)[nH]n2)cc(OC)c1OC`
Key: -20

----------
System: SNB-75
procedure_details: Cytotoxicity against human SNB75 cells assessed as growth inhibition after 48 hrs by sulforhodamine B assay
Assay type: functional
condition_summary: SNB-75, 48 h
observation_type: LC50 (concentration killing 50% of cells) (µM)
Output spec: scalar in µM, unitless text.

Some solved cases for reference:
structure_string=COc1ccc(-c2cc(/C=C/C(=O)c3ccc(N)cc3)[nH]n2)cc1 observed_value=35.3
structure_string=COc1cc2c(cc1OC)C(=O)/C(=C/c1cc(-c3ccc4c(c3)OCO4)n[nH]1)C2 observed_value=5.51
structure_string=COc1cc(C(=O)/C=C/c2cc(-c3ccc4c(c3)OCO4)n[nH]2)cc(OC)c1OC observed_value=26.1

Could you now consider this next compound?
Exercise: // fetch LC50 (concentration killing 50% of cells) for `COc1ccc(-c2cc(/C=C/C(=O)c3cc(OC)c(OC)c(OC)c3)[nH]n2)cc1OC` ; system: SNB-75
Key: 12.7

----------
System: NCI-H226
procedure_details: Cytotoxicity against human NCI-H226 cells assessed as cell growth at 0.01 uM after 48 hrs by sulforhodamine B assay relative to control
Assay type: functional
condition_summary: NCI-H226, 48 h, read-out: Activity
observation_type: growth at 0.01 µM (%)
Output spec: scalar in %, unitless text.

Some solved cases for reference:
structure_string=COc1ccc(-c2cc(/C=C/C(=O)c3ccc(OC)c(OC)c3)[nH]n2)cc1 observed_value=83
structure_string=COc1cc2c(cc1OC)C(=O)/C(=C/c1cc(-c3ccc4c(c3)OCO4)n[nH]1)C2 observed_value=97
structure_string=COc1ccc(-c2cc(/C=C/C(=O)c3ccc(N)cc3)[nH]n2)cc1OC observed_value=93

Exercise: Write down growth at 0.01 µM measured for item `COc1ccc(C(=O)/C=C/c2cc(-c3cc(OC)c(OC)c(OC)c3)n[nH]2)cc1OC`
Key: 98
